Experiment: compound effects on differentiated 3T3-L1 adipocyte viability – cell-based, 3T3-L1 adipocytes, calcein-AM fluorescence, 48 h, basal, profiling panel (AID 1163); note: test concentration not given here
Conditions: 3T3-L1 adipocytes viability, higher = more signal
Each record here notes measured z-score.
Write the number on its own, no unit after it.

# example entries with known answers
compound=C=C(COC)C(=O)CC[C@H](OC(=O)c1cccnc1)c1ccccc1OCCO measurement=-0.751
compound="CC(=O)n1cc(C(O)C2C=CC3C(=O)N(c4ccccc4)C(=O)C3N2Nc2ccc(C#N)cc2)c2ccccc21 (stereo not drawn)" measurement=-0.876
compound=C=C(CCCC)C(=O)CC[C@H](OC(=O)c1ccccc1-c1ccccc1C(=O)O)c1ccc(CO)o1 measurement=0.418

Input: I am curious: what z-score value has been reported for `Cc1ccc(S[C@]2(C(=O)NCCCN(C)C)CC(=O)N(Cc3ccccc3)[C@@H]2c2ccc(CO)cc2)cc1` ?
Output: -0.084

Input: Another: `COCC1=C([C@H](O)CCc2ccccc2)[C@H](CO)[C@@H]2C(=O)N(Cc3ccccc3)C(=O)[C@@H]2C1`
Output: 0.709

Input: Another: CCCCN1CC=CC23O[C@@H]4/C=C\CCCOC(=O)C4[C@H]2C(=O)N(C(C)CO)[C@@H]3C1=O (stereo partly drawn)
Output: -0.455

Input: Another: `CC[C@@H]1C=C(C(=O)O)[C@H](c2ccc(C(C)C)cc2)N1S(=O)(=O)c1ccc(C)cc1`
Output: -0.178

Input: Another: `C[C@]1(C(=O)NCC(F)(F)F)c2ccccc2C(=O)N(Cc2cc(F)cc(C(F)(F)F)c2)[C@H]1c1ccc(CO)cc1`
Output: 1.63

====

Each record here notes measured z-score.
Experiment: blockers of DNA damage checkpoint Chk1 activation – imaging, HeLa, hydroxyurea, phospho-Chk1 antibody, percent positive cells, primary screen (AID 1186)
Details: hydroxyurea-induced phospho-Chk1 immunofluorescence imaging, higher = more signal
Write the number on its own, no unit after it.

# example entries with known answers
compound=CC(C)NC(=O)[C@@]1(c2ccc([N+](=O)[O-])cc2)CC(=O)N(C(C)C)[C@@H]1c1ccc(CO)cc1 measurement=-0.403
compound="CCOC1=C2C(c3ccc(C)cc3)N(S(=O)(=O)c3ccc(C)cc3)CC2n2c(=O)n(-c3ccccc3)c(=O)n2C1 (centres undefined)" measurement=-0.562
compound="Cc1ccc(C(C)CC(O)C2C=CC3C(=O)NC(=O)C3N2Nc2ccccn2)o1 (centres undefined)" measurement=0.333

The record that follows has no z-score shown yet.
Input: I am curious: what z-score value has been reported for `C=C(/C(=C/C[C@@H](OC(C)=O)c1ccc(CO)o1)c1cnc2ccccc2c1)C(C)C` ?
Output: -0.0375

====

Assay: budding yeast growth modifiers under rapamycin – strain BY4716, OD600, 96 h, primary screen (AID 1091); note: test concentration not given here
Conditions: S. cerevisiae BY4716 + rapamycin, higher = more signal, called active from +8 up or from −8 down
Each entry gets N if its z-score stays under 2, and Y if its z-score is 2 or above.

compound=CC(C)NC(=O)[C@@H]1c2ccccc2C(=O)N(C2CCCCC2)[C@H]1c1ccc(CO)cc1 qualitative_label=N
compound="CC1CC/C=C\\[C@H]2OC34C=CCN(CCN5CCOCC5)C(=O)[C@H]3N(CCCCCO)C(=O)[C@@H]4C2C(=O)O1 (stereo not given in full)" qualitative_label=N
compound=CC(C)[C@H]1COC(=O)N1C(=O)[C@H]1[C@@H](c2ccccc2)N(c2ccccc2)O[C@@H]1C qualitative_label=N
compound=C=C(CCCC)C(=O)CC[C@H](OC(C)=O)c1ccc(CO)o1 qualitative_label=N
compound="CCN(CC)c1ccc(N2CC=CC34O[C@@H]5C=CCCOC(=O)C5[C@H]3C(=O)N(CCCO)[C@@H]4C2=O)cc1 (stereo not given in full)" qualitative_label=N
compound=CN(C)CCCCCCNC(=O)[C@@H]1C[C@@H]2C(=O)N[C@@H](Cc3ccccc3)C(=O)N2[C@@H]1c1cccc(OCCO)c1 qualitative_label=N
compound=CCCNC(=O)[C@@]1(c2ccc([N+](=O)[O-])cc2)CC(=O)N(CC23CC4CC(CC(C4)C2)C3)[C@@H]1c1ccc(CO)cc1I qualitative_label=Y
compound=C=CCNC(=O)[C@@H]1[C@H]2C(=O)O[C@H](c3ccccc3)[C@H](c3ccccc3)N2[C@H](c2ccccc2OCCO)[C@@]12C(=O)N(C(=O)OCCOC)c1ccc(C#CCC(C(=O)OC)C(=O)OC)cc12 qualitative_label=Y

Input: In plain terms: is recorded z-score at least 2 for `O=C1[C@H]2C=C(Br)[C@H](C[C@@H]2OCCOCCO)[C@@]12CO2` ?
Output: N

Input: Another: `NC(=O)[C@@]1(CCS(=O)(=O)c2ccccc2)N=C(c2ccc(OCCCO)cc2)O[C@H]1c1ccccc1`
Output: N

Input: Another: CCOC1=C2C(c3ccc(C)cc3)N(S(=O)(=O)c3ccc(C)cc3)CC2n2c(=O)n(-c3ccccc3)c(=O)n2C1 (stereo not given)
Output: N
